tgt: recombinant mouse CTLA-4 protein (mouse) (UniProt P09793)
Sequence (P09793 36-161 limits assumed): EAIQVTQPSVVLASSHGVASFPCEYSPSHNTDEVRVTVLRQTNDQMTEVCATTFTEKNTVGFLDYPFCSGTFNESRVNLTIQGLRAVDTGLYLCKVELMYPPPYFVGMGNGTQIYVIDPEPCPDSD
runDescription: SPR (Pioneer FE, OneStep), 25 C; 3xFLAG scFv captured by anti-FLAG M2, mouse CTLA-4 as analyte
Answer each item with its documented Kd.
Answers are plain numbers, in nM.

# count of solved cases: 2
78-8D6 scFv (scFv, part only; not given: Linker, domain order, 3xFLAG tag, V domains shown, not shown: another chain or arm of the molecule; small tags and cut ends) VH: EVQLVESGGGLVQPGGSLRLSCVASGFTFSSYVMHWVRQAPGKGLEWVSAISWSGGGTYYADSVKGRFTISRDNSKNTLYLQMNSLRAEDTAVYYCARGRLFGLALYGEAFDVWGQGTLVTVSS VL: DIQMTQSPSSLSASVGDRVTITCQASKDISNYLNWYQQKPGKAPKLLIYNASNLETGVPSRFSGSGSGTDFTFTISSLQPEDIATYYCQQFNSFPLTFGQGTKVEIK | 0.19
78-8D5 scFv (scFv, part only; not given: Linker, domain order, 3xFLAG tag, V domains shown, not shown: another chain or arm of the molecule; small tags and cut ends) VH: EVQLVESGGGLVQPGGSLRLSCAASGFTFSSYVMHWVRQAPGKGLEWVSAISWSGGGTYYADSVKGRFTISRDNSKNTLYLQMNSLRAEDTAVYYCARGRLFGLALYGEAFDVWGQGTLVTVSS VL: DIQMTQSPSSLSASVGDRVTITCQASKDISNYLNWYQQKPGKAPKLLIYDASNLETGVPSRFSGSGSGTDFTFTISSLQPEDIATYYCQQFNSFPLTFGQGTKVEIK | 0.42

Here's the next entry for you.
GET /values?readout=Kd&item= 78-8D2 scFv (scFv, part only; not given: Linker, domain order, 3xFLAG tag, V domains shown, not shown: another chain or arm of the molecule; small tags and cut ends) VH: EVQLVESGGGLVQPGGSLRLSCAASGFTFSSYVMHWVRQAPGKGLEWVSAITWSGRGTYYADSVKGRFTISRDNSKNTLYLQMNSLRAEDTAVYYCARGRLFGLALYGEAFDVWGQGTLVTVSS VL: DIQMTQSPSSLSASVGDRVTITCQASKDISNYLNWYQQKPGKAPKLLIYDASNLETGVPSRFSGSGSGTDFTFIISSLQPEDIATYYCQQFNSFPLTFGQGTKVEIK
0.3
